Catalogue of IC50, FLIPR calcium mobilisation values
target.under.test: human nerve growth factor (beta-NGF) (human, UniProt P01138 122-241)
Sequence (P01138 122-241): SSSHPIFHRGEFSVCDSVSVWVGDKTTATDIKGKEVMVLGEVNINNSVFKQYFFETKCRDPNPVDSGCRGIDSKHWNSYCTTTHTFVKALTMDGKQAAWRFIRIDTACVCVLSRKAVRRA
test.protocol: cell-based or functional assay

| binder | IC50, FLIPR calcium mobilisation [nM] |
| --- | --- |
| 1132A9 human IgG4 (antibody, V domains shown) VH: EVQLVQSGAEVKKPGSSVKVSCKASGGTFSTYGISWVRQAPGQGLEWIGGIIPIFGTGNSAQSFQGRVTITADESTSTAYMEVSSLRSDDTAVYYCASSSRIYDFEPSLIYYYDMDVWGQGTMVTVSS VL: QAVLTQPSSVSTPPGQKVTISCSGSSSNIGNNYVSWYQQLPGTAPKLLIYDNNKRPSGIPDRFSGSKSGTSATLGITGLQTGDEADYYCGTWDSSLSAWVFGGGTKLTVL | 0.39 |
| 1127F9 human IgG4 (antibody, V domains shown) VH: EVQLVQSGAEVKKPGSSVKVSCKASGGTFSTYGISWVRQAPGQGLEWIGGIIPIFDTGNSAQSFQGRVTITADESTSTAYMKVSSLRSDDTAVYYCASSSRIYDYIPGMRPYYDMDVWGQGTMVTVSS VL: QAVLTQPSSVSTPPGQKVTISCSGNSSNIGNNYVSWYQQLPGTAPKLLIYDNNKRPSGIPDRFSGSRSGTLATLGITGLQTGDEADYYCGTWDSSLSAWVFGGGTKLTVL | 0.36 |
| 1165D4 human IgG4 (antibody, V domains shown) VH: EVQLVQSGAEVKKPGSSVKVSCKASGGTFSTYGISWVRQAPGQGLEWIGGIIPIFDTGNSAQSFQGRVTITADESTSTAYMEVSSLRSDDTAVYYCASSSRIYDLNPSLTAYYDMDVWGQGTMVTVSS VL: QAVLTQPSSVSTPPGQKVTISCSGSSSNIENNYVSWYQQLPGTAPKLLIYDNNKRPSGIPDRFSGSKSGTSATLGITGLQTGDEADYYCGTWDSSLSAWVFGGGTKLTVL | 0.26 |
